Where these numbers come from: paper PMC4121272

Molecular target: β-gal II (Bifidobacterium breve)
Construct: full length, C-terminal His6 tag kept (pET-21a), E. coli T7 Express with GroEL/GroES, IMAC; calculated 116,594 Da; homodimer 211 kDa; GH2; N-terminus from primer MNTTDDQ, C-terminus before tag DVNLELI
Sequence (D4BR09 entry or part of it): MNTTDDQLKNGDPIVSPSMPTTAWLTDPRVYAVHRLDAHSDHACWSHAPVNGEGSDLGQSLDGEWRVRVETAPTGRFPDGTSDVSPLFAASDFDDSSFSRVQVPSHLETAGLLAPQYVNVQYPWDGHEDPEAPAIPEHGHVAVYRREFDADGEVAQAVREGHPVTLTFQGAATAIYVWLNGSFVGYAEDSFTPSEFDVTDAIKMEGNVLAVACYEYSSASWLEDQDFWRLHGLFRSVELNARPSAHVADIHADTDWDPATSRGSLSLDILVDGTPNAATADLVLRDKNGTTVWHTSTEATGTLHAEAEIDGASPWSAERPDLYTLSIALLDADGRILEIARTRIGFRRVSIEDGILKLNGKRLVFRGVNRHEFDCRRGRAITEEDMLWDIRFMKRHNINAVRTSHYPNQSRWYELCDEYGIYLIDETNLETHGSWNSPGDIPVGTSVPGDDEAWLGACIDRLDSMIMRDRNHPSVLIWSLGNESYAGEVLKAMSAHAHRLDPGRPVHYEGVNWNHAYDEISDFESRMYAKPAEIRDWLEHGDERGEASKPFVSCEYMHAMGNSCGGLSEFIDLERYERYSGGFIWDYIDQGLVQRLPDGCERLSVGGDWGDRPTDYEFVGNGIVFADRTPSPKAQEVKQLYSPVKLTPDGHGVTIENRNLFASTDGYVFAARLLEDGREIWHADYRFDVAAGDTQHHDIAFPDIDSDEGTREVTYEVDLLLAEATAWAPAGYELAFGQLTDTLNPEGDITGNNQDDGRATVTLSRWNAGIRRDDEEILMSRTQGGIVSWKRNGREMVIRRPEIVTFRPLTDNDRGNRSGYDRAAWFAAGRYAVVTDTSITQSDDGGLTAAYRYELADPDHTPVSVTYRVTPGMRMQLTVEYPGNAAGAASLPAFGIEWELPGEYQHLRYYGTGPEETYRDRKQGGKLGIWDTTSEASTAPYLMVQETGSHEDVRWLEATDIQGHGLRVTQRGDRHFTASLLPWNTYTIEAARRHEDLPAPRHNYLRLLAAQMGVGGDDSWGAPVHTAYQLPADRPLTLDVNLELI
Assay: oNPG hydrolysis, o-nitrophenol release at […] nm, nonlinear regression
Conditions: competitive vs oNPG; 50 mM sodium phosphate pH 6.5, 30°C
reported_metric: Ki (mM)

>  <compound>
OC[C@H]1OC(O)[C@H](O)[C@@H](O)[C@H]1O (stereo partly drawn) [D-galactose]

>  <experimental_system>
β-gal II (Bifidobacterium breve)

>  <Ki (mM)>
34

$$$$
>  <compound>
OC[C@H]1OC(O)[C@H](O)[C@@H](O)[C@@H]1O (stereo partly drawn) [D-glucose]

>  <experimental_system>
β-gal II (Bifidobacterium breve)

>  <Ki (mM)>
37

$$$$
